biological target: N-type calcium channels in IMR-32 cells (Homo sapiens); construct: host or cells: IMR-32 cells differentiated with dibutyryl cAMP and bromodeoxyuridine; assay: N-type Ca2+ channel blocking potency in IMR-32 cells using Indo-1; format: cell-based; conditions: IMR-32 cells; estimated from two data points; read-out: IMR32 IC50 (estimated IC50 values based on two data points)
Where a name gives a salt, the structure may show the parent alone.
Parameter class (string): assigned from measured IC50. Ranges: bin 0 = under 600 nM, bin 1 = from 600 nM up to 2000 nM, bin 2 = 2000 nM and over

Ask | Just checking, what class would you give CC(C)(C)OC(=O)N[C@@H](Cc1ccccc1)C(=O)N1CCN(C(c2ccc(F)cc2)c2ccc(F)cc2)CC1 here?
Reply | bin 0

Ask | Just checking, what class would you give CC(C)C[C@H](NC(C)C)C(=O)NCCCC(c1ccc(F)cc1)c1ccc(F)cc1 [Example 19, monohydrochloride] here?
Reply | bin 1

Ask | Just checking, what class would you give CC(C)C[C@H](NC1CCCCC1)C(=O)N1CCN(C(c2ccc(F)cc2)c2ccc(F)cc2)CC1 here?
Reply | bin 1

Ask | Just checking, what class would you give CC(C)C[C@@H](C(=O)NCCC(c1ccccc1)c1ccccc1)N(C)C1CCCCC1 [Example 25, monohydrochloride] here?
Reply | bin 1

Ask | Just checking, what class would you give CC(C)C[C@@H](NC(=O)N1CCCCCC1)C(=O)N1CCN(C(c2ccc(F)cc2)c2ccc(F)cc2)CC1 here?
Reply | bin 1

Ask | Just checking, what class would you give CC(C)C[C@H](NC(=O)OC(C)(C)C)C(=O)N1CCN(C(c2ccc(F)cc2)c2ccc(F)cc2)CC1 here?
Reply | bin 0

* * *

biological target: N-type Ca2+ channels in cultured superior cervical ganglion (SCG) neurons (Rattus norvegicus, UniProt Q02294); construct: from tissue; experiment: Calcium current in superior cervical ganglion neurons (whole-cell voltage clamp); assay type: cell-based; conditions: at 10 μM, read-out: SCG Ca, % blockage at 10 μM
Sequence (Q02294 whole entry): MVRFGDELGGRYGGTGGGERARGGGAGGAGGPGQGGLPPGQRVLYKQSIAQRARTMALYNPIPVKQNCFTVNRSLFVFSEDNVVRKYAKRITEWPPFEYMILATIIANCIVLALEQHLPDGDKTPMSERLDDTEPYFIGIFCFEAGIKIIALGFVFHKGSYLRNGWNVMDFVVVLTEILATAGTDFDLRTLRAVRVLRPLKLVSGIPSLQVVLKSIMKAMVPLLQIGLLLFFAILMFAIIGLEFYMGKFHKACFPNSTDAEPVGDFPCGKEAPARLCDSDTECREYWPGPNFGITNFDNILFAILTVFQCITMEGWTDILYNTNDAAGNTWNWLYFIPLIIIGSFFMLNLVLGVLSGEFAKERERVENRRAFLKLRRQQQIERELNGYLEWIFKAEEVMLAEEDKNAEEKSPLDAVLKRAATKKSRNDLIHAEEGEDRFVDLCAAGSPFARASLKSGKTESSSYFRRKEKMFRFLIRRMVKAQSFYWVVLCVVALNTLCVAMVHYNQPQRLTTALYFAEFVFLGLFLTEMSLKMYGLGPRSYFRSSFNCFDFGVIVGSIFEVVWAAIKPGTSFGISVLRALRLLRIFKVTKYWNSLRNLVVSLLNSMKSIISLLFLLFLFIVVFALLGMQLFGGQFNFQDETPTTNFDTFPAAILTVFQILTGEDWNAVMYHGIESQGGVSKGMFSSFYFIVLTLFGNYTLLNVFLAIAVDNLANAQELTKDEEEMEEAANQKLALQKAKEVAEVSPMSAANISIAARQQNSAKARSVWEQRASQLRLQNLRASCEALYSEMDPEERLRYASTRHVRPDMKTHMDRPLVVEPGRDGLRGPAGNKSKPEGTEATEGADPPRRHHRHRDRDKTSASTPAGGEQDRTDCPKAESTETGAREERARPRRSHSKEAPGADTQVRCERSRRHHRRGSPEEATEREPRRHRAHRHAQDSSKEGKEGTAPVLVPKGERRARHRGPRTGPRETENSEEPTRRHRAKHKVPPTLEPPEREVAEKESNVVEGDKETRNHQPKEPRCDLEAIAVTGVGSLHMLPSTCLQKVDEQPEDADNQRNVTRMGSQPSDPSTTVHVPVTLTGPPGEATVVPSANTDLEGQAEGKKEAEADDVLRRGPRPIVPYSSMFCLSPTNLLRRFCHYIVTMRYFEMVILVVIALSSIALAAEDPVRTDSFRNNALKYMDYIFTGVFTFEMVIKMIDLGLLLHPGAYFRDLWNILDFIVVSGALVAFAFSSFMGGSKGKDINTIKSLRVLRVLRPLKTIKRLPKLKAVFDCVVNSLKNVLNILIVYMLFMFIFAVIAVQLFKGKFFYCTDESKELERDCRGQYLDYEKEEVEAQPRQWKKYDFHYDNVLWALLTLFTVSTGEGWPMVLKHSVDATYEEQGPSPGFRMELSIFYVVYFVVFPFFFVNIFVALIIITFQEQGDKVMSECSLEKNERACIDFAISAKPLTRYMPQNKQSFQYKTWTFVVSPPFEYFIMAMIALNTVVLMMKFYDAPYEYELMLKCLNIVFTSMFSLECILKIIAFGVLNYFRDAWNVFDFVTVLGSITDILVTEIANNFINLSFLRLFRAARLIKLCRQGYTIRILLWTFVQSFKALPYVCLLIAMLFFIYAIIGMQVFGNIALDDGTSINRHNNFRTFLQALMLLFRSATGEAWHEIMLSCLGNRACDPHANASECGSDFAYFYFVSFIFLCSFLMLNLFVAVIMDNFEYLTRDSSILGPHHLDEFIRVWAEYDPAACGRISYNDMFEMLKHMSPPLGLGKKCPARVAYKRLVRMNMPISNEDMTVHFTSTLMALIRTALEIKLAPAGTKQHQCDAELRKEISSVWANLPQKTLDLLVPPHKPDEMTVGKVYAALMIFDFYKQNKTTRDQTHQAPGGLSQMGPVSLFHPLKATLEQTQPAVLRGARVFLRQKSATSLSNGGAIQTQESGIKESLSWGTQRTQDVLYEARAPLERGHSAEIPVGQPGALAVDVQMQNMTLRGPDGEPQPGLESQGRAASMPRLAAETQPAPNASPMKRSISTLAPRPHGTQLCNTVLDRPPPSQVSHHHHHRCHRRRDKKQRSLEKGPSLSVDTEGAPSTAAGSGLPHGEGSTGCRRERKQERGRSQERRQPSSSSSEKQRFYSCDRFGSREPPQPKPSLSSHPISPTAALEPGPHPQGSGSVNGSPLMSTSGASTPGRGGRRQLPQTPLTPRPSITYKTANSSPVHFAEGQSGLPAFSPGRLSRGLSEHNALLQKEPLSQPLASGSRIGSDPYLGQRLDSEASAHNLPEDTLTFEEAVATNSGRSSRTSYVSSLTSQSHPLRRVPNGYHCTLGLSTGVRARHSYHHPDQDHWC
Sequence (P54290 25-944 partner limits assumed): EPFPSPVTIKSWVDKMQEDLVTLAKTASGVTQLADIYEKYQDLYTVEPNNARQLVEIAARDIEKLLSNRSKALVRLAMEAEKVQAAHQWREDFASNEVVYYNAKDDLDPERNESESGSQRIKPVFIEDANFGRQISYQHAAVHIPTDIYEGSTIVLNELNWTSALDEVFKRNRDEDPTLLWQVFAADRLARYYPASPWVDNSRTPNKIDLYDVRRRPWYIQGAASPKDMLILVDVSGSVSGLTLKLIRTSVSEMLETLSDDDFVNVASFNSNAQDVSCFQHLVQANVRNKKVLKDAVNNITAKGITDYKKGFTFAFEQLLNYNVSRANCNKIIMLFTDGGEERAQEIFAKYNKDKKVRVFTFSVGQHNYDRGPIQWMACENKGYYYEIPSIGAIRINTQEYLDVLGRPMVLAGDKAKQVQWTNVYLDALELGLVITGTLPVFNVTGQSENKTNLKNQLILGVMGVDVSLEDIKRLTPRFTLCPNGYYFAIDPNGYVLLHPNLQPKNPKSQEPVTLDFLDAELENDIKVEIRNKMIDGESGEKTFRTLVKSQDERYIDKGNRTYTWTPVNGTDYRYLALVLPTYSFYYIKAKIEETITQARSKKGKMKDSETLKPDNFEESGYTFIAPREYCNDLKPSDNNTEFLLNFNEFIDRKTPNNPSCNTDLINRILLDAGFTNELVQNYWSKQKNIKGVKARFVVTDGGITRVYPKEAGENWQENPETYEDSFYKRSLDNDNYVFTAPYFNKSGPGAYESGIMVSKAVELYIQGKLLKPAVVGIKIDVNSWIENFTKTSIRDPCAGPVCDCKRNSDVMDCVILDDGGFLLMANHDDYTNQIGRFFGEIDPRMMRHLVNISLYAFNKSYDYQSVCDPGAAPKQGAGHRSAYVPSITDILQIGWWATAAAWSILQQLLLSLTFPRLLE
Sequence (P54290 945-1091 partner limits assumed): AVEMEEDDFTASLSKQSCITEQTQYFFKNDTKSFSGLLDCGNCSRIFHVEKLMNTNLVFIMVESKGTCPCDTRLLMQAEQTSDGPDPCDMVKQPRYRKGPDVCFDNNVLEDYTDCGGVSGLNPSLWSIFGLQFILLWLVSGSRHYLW
Sequence (P54287 whole entry partner): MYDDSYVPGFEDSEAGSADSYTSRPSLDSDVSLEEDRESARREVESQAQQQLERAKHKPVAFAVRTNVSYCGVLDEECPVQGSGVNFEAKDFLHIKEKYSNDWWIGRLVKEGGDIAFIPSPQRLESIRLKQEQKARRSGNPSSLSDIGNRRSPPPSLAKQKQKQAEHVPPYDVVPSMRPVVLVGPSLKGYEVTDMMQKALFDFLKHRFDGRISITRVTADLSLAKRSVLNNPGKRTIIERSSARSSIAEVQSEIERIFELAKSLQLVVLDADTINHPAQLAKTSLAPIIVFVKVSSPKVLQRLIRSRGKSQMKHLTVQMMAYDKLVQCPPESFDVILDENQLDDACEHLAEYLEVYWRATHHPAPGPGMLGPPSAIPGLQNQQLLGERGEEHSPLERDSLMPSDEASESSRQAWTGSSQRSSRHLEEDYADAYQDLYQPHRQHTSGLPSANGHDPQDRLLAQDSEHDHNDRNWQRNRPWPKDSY
Where a name gives a salt, the structure may show the parent alone.
Would you please tag the item condition met when its inhibition at 10 µM is 30% or above, and condition not met when it is below?

Worked examples, 2 molecules total:
{"columns": ["Molecule", "Class label"],
 "data": [
  ["CC(C)C[C@@H](C(=O)NCCCC(c1ccc(F)cc1)c1ccc(F)cc1)N(C)Cc1ccc(C(C)(C)C)cc1.Cl [Example 14, monohydrochloride]", "condition not met"],
  ["CC(C)C[C@H](NC(=O)N1CCCCCC1)C(=O)NCCCC(c1ccc(F)cc1)c1ccc(F)cc1", "condition not met"]
]}

Ask | Record CC(C)C[C@@H](C(=O)N1CCN(C(c2ccc(F)cc2)c2ccc(F)cc2)CC1)N(C)C [Example 39, dihydrochloride] ; criterion: inhibition at 10 µM no lower than 30%. Met?
Reply | condition met

Ask | Record CC(C)C[C@H](NC(=O)N1CCCCCC1)C(=O)N1CCN(C(c2ccc(F)cc2)c2ccc(F)cc2)CC1 ; criterion: inhibition at 10 µM no lower than 30%. Met?
Reply | condition met

Ask | Record CC(C)C[C@H](NC(=O)N1CCCCCC1)C(=O)NC(c1ccccc1)c1ccccc1 ; criterion: inhibition at 10 µM no lower than 30%. Met?
Reply | condition met

Ask | Record CC(C)=CCN(C)[C@@H](CC(C)C)C(=O)NCCCC(c1ccc(F)cc1)c1ccc(F)cc1 [Example 13, monohydrochloride] ; criterion: inhibition at 10 µM no lower than 30%. Met?
Reply | condition met

Ask | Record CC(C)CCN(C)[C@@H](CC(C)C)C(=O)NCCCC(c1ccc(F)cc1)c1ccc(F)cc1 [Example 28, monohydrochloride] ; criterion: inhibition at 10 µM no lower than 30%. Met?
Reply | condition met

* * *

Counter-ions that a name gives are not always drawn.
Parameter melting point: see the listing below.

{"columns": ["Compound", "melting point"],
 "data": [
  ["CC(C)C[C@@H](C(=O)N1CCN(C(c2ccc(F)cc2)c2ccc(F)cc2)CC1)N(Cc1ccc(OC(C)(C)C)cc1)Cc1ccc(OC(C)(C)C)cc1", "62 to 67 °C"],
  ["CC(C)(C)OC(=O)N[C@@H](Cc1ccccc1)C(=O)N1CCN(C(c2ccc(F)cc2)c2ccc(F)cc2)CC1", "54 to 74 °C"],
  ["CC(C)C[C@@H](C(=O)NCCCC(c1ccc(F)cc1)c1ccc(F)cc1)N1CCOCC1 (as salt: hydrochloride) [Example 23, monohydrochloride]", "63 to 78 °C"]
]}

Ask | If you can, please state the reported melting point value of CC(C)C[C@H](NC(=O)N1CCCCCC1)C(=O)N1CCN(C2c3ccccc3-c3ccccc32)CC1 .
Reply | 63 to 73 °C

Ask | If you can, please state the reported melting point value of CC(C)[C@H](NC(=O)N1CCCCCC1)C(=O)NCCCC(c1ccc(F)cc1)c1ccc(F)cc1 .
Reply | 32 to 50 °C

Ask | If you can, please state the reported melting point value of CC(C)C[C@H](NC(=O)N1CCN(c2ccccc2)CC1)C(=O)NCCCC(c1ccc(F)cc1)c1ccc(F)cc1 .
Reply | 138 to 141 °C

Ask | If you can, please state the reported melting point value of CC(C)C[C@H](N)C(=O)N1CCN(C(c2ccc(F)cc2)c2ccc(F)cc2)CC1 .
Reply | 61 to 68 °C

* * *

molecular target: N-type calcium channels in IMR-32 cells (Homo sapiens, UniProt Q00975); construct: host or cells: IMR-32 cells differentiated with dibutyryl cAMP and bromodeoxyuridine; assay: N-type Ca2+ channel blocking potency in IMR-32 cells using Indo-1; type: cell-based; conditions: IMR-32, IMR-32 cells; at 10 μM; read-out: IMR32 % blockage at 10 μM
Where a name gives a salt, the structure may show the parent alone.
Parameter inhibition at 10 µM: see the listing below.
Output spec: scalar in %, unitless text.

Would you please look over these solved cases?
{"columns": ["Compound", "inhibition at 10 µM [%]"],
 "data": [
  ["CC(C)C[C@H](NC1CCCCC1)C(=O)NCCCC(c1ccc(F)cc1)c1ccc(F)cc1.Cl [Example 15, monohydrochloride]", 87],
  ["CC(C)CCN[C@@H](Cc1ccccc1)C(=O)N1CCN(C(c2ccc(F)cc2)c2ccc(F)cc2)CC1.Cl [Example 55, dihydrochloride]", 104]
]}

Next compound, please.
Ask | If you can, please state the reported inhibition at 10 µM value of CC(C)CCN(C)[C@@H](CC(C)C)C(=O)NCCCC(c1ccc(F)cc1)c1ccc(F)cc1 [Example 28, monohydrochloride] .
Reply | 97

* * *

target: N-type calcium channels in IMR-32 cells (Homo sapiens); construct: host or cells: IMR-32 cells differentiated with dibutyryl cAMP and bromodeoxyuridine; test: N-type Ca2+ channel blocking potency in IMR-32 cells using Indo-1; format: cell-based; details: IMR-32, IMR-32 cells; at 1 μM; read-out: IMR32 % blockage at 1 μM
Counter-ions that a name gives are not always drawn.
Measurement name: inhibition at 1 µM (%)
Output spec: scalar in %, unitless text.

Would you please look over these solved cases?
{"columns": ["Compound", "System under test", "inhibition at 1 µM (%)"],
 "data": [
  ["CC(C)C[C@@H](C(=O)NCCCC(c1ccc(F)cc1)c1ccc(F)cc1)N1CCCCC1", "N-type calcium channels in IMR-32 cells (Homo sapiens)", 49],
  ["CCC(C)N[C@H](C(=O)NCCCC(c1ccc(F)cc1)c1ccc(F)cc1)C(C)C (stereo partly drawn)", "N-type calcium channels in IMR-32 cells (Homo sapiens)", 34],
  ["CC(C)C[C@H](NC(=O)N1CCN(C)CC1)C(=O)NCCCC(c1ccc(F)cc1)c1ccc(F)cc1", "N-type calcium channels in IMR-32 cells (Homo sapiens)", 22],
  ["CC(C)[C@@H](C(=O)NCCCC(c1ccc(F)cc1)c1ccc(F)cc1)N(C)C1CCCCC1", "N-type calcium channels in IMR-32 cells (Homo sapiens)", 34],
  ["CC(C)CCN(C)[C@@H](CC(C)C)C(=O)NCCCC(c1ccc(F)cc1)c1ccc(F)cc1 [Example 28, monohydrochloride]", "N-type calcium channels in IMR-32 cells (Homo sapiens)", 92],
  ["CC(C)CC(NC(=O)N1CCN(C)CC1)C(=O)N1CCN(C(c2ccc(F)cc2)c2ccc(F)cc2)CC1 (stereo in doubt)", "N-type calcium channels in IMR-32 cells (Homo sapiens)", 13],
  ["CC(C)C[C@@H](C(=O)N1CCN(C(c2ccc(F)cc2)c2ccc(F)cc2)CC1)N(Cc1ccc(C(C)(C)C)cc1)Cc1ccc(C(C)(C)C)cc1", "N-type calcium channels in IMR-32 cells (Homo sapiens)", -5],
  ["O=C([C@H](Cc1ccccc1)NC1CCCCC1)N1CCN(C(c2ccc(F)cc2)c2ccc(F)cc2)CC1", "N-type calcium channels in IMR-32 cells (Homo sapiens)", 42]
]}

Ask | Provide value of inhibition at 1 µM for this record tested with N-type calcium channels in IMR-32 cells (Homo sapiens): CC(C)C[C@@H](C(=O)NCCC(c1ccccc1)c1ccccc1)N1CCCCC1.Cl [Example 24, monohydrochloride]
Reply | 35

Ask | Provide value of inhibition at 1 µM for this record tested with N-type calcium channels in IMR-32 cells (Homo sapiens): CC(C)C[C@@H](C(=O)NCCCC(c1ccc(F)cc1)c1ccc(F)cc1)N(C)C1CCCCC1 [Example 21, monohydrochloride]
Reply | 71

Ask | Provide value of inhibition at 1 µM for this record tested with N-type calcium channels in IMR-32 cells (Homo sapiens): CC(C)C[C@H](NC1CCCCC1)C(=O)NCCCC(c1ccc(F)cc1)c1ccc(F)cc1.Cl [Example 15, monohydrochloride]
Reply | 62

Ask | Provide value of inhibition at 1 µM for this record tested with N-type calcium channels in IMR-32 cells (Homo sapiens): CC(C)C[C@H](N)C(=O)N1CCN(C(c2ccc(F)cc2)c2ccc(F)cc2)CC1
Reply | 22
